Reference for the values: the supplement of paper PMC12645437

- testedOn: T1, CRBN, Q96SW2
- T1 chain: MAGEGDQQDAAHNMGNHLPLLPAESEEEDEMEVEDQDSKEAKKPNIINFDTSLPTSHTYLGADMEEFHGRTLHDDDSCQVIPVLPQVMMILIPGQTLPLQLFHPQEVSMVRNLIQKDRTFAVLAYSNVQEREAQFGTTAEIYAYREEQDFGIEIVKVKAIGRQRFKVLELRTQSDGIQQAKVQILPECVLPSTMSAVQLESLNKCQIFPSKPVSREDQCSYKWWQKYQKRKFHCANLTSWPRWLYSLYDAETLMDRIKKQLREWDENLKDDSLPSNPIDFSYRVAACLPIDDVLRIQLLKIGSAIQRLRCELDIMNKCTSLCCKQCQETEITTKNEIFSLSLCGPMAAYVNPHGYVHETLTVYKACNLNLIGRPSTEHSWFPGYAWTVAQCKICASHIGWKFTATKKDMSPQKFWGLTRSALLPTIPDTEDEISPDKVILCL
- protocolNotes: log2 fold change of degron read counts, EGFP-low vs EGFP+ sorted cells (limma voom), compound-induced degradation; higher = more compound-induced degradation of the degron-EGFP fusion; degrons are variants of IKZF1/3 zinc finger 2; compound dose not given here;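 note: pooled lentiviral library of zinc finger degron-EGFP fusions in mCherry-positive Jurkat cells, FACS-sorted after compound exposure, with degron abundance counted by next-generation sequencing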
- statedConditions: Jurkat; 18 h; compound: compound 33 (diphenyl IMiD analogue)
The full ranking holds about 8,300 sequences; the median of “log2 fold change of degron read counts, EGFP-low vs EGFP+ sorted cells (limma voom), compound-induced degradation” is about -1.1, and the highest 2% start at about 3.2. The sample as a whole holds a higher share of the highest values than the screen did.
Returns one of TRUE or FALSE; TRUE when log2 fold change of degron read counts is >= -2.

INSERT INTO results (monomersequence, answerlabel) VALUES
  ('LFCPICGFMCTQKGNLLRHIKL [46L_47F_49P_50I_52G_53F_54M_55C_67L_, Q9UKT9]', 'TRUE'),
  ('FECPICGRSFTQKGNLLRHIKL [46F_47E_49P_50I_52G_53R_54S_55F_67L_, Q9UKT9]', 'TRUE'),
  ('LYCNQCGFFCTQKGNLLRHIKL [46L_47Y_49N_50Q_52G_53F_54F_55C_67L_, Q9UKT9]', 'TRUE'),
  ('FKCPICGRAFTQKGNLLRHIKL [46F_47K_49P_50I_52G_53R_54A_55F_67L_, Q9UKT9]', 'FALSE'),
  ('FWCNQCGRHFTQKGNLLRHIKL [46F_47W_49N_50Q_52G_53R_54H_55F_67L_, Q9UKT9]', 'TRUE'),
  ('FMCSVCGHPFTQKGNLLRHIKL [46F_47M_49S_50V_52G_53H_54P_55F_67L_, Q9UKT9]', 'TRUE'),
  ('FKCNICGAWFTQKGNLLRHIKL [46F_47K_49N_50I_52G_53A_54W_55F_67L_, Q9UKT9]', 'FALSE');
